# System: HORVW (Hordeum vulgare—barley)
# test description: Post-emergence glasshouse herbicide test, crop damage on barley
# Type: in vivo
# protocol conditions: Rate 250 g/ha; sprayed after 10 days cultivation; evaluated after 14 days
recorded endpoint: HORVW damage to plant (100=total damage to plant; 0=no damage to plant)
Give the figure by itself; no unit, no explanation.

Query: Item COc1ccc(-n2nc(C)cc(C(=O)C3C(=O)CC(C)(C)CC3=O)c2=O)cc1OC has what recorded HORVW damage to plant (100=total damage to plant; 0=no damage to plant)?
Response: 10

Query: Form field: reported HORVW damage to plant (100=total damage to plant; 0=no damage to plant) of COc1ccc(-n2nc(C)cc(C(=O)C3C(=O)CCCC3=O)c2=O)cc1OC
Response: 0

Query: State the recorded HORVW damage to plant (100=total damage to plant; 0=no damage to plant) for this entry: COc1ccc(-n2nc(C3CC3)cc(C(=O)C3C(=O)C(C)(C)C(=O)C(C)(C)C3=O)c2=O)cc1OC
Response: 0

Query: Which HORVW damage to plant (100=total damage to plant; 0=no damage to plant) is reported for this compound? COc1ccc(-n2nc(C3CC3)cc(C(=O)C3C(=O)C4CCC(C4)C3=O)c2=O)cc1OC (stereo not shown)
Response: 10

Query: Consider the compound shown here: COc1ccc(-n2nc(C)cc(C(=O)C3C(=O)CC(C)CC3=O)c2=O)cc1OC (stereo not shown) What is its recorded HORVW damage to plant (100=total damage to plant; 0=no damage to plant)?
Response: 0

Query: Entry under review: COc1ccc(-n2nc(C)cc(C(=O)C3C(=O)C4CCC(C4)C3=O)c2=O)cc1OC (stereo not shown) . Reported HORVW damage to plant (100=total damage to plant; 0=no damage to plant)?
Response: 0

Query: What does the record list as HORVW damage to plant (100=total damage to plant; 0=no damage to plant) for COc1ccc(-n2nc(C)cc(C(=O)C3C(=O)C(C)(C)C(=O)C(C)(C)C3=O)c2=O)cc1OC ?
Response: 0
